# experimental details: Stability study for Fesoterodine Fumarate (description, water by KF, related substances by HPLC on storage)
# Type: physicochemical
# condition description: 1 Month 40° C. ± 2° C./RH 75% ± 5%; PSD: D(90) = 270 microns
# Procedure: As used herein, the term “stable fesoterodine fumarate” fesoterodine fumarate containing any individual impurities less than 0.15% after exposure to a relative humidity of 60% at 25° for a period of at least three months or after exposure to a relative humidity of 75% at 40° for a period of at least three months 2) High Performance Liquid Chromatography (HPLC) Method for Determination of Impurity X in Fesoterodine Fumarate of formula (1) […]
readout name: Related substance ii) Diester (%)
// return numeric value only (unit: %, not printed)

# input Item CC(C)C(=O)Oc1ccc(CO)cc1[C@H](CCN(C(C)C)C(C)C)c1ccccc1.O=C(O)/C=C/C(=O)O [Fesoterodine Fumarate] has what recorded Related substance ii) Diester?
# output 0.04

* * *

# experimental details: Stability study for Fesoterodine Fumarate (description, water by KF, related substances by HPLC on storage)
# Assay type: physicochemical
# condition description: 3 Months 25° C. ± 2° C./RH 60% ± 5%; PSD: D(90) = 270 microns
readout name: Related substance v) Total impurities (%)
// return numeric value only (unit: %, not printed)

# input Item CC(C)C(=O)Oc1ccc(CO)cc1[C@H](CCN(C(C)C)C(C)C)c1ccccc1.O=C(O)/C=C/C(=O)O [Fesoterodine Fumarate] has what recorded Related substance v) Total impurities?
# output 0.06

* * *

# experimental details: Stability study for Fesoterodine Fumarate (description, water by KF, related substances by HPLC on storage)
# Format: physicochemical
# condition description: 1 Month 25° C. ± 2° C./RH 60% ± 5%; PSD: D(90) = 270 microns
readout name: Related substance i) Diol
Don't forget the unit after the value.

# input Item CC(C)C(=O)Oc1ccc(CO)cc1[C@H](CCN(C(C)C)C(C)C)c1ccccc1.O=C(O)/C=C/C(=O)O [Fesoterodine Fumarate] has what recorded Related substance i) Diol?
# output 0.05%

* * *

# experimental details: Stability study for Fesoterodine Fumarate (description, water by KF, related substances by HPLC on storage)
# Type: physicochemical
# condition description: 3 Months 40° C. ± 2° C./RH 75% ± 5%; PSD: D(90) = 270 microns
readout name: Related substance ii) Diester (%)
// return numeric value only (unit: %, not printed)

# input Item CC(C)C(=O)Oc1ccc(CO)cc1[C@H](CCN(C(C)C)C(C)C)c1ccccc1.O=C(O)/C=C/C(=O)O [Fesoterodine Fumarate] has what recorded Related substance ii) Diester?
# output 0.06

* * *

# experimental details: Stability study for Fesoterodine Fumarate (description, water by KF, related substances by HPLC on storage)
# Assay type: physicochemical
# condition description: Initial; PSD: D(90) = 270 microns
readout name: Related substance iii) Oxidized (RRT 1.37) (%)
// return numeric value only (unit: %, not printed)

# input Item CC(C)C(=O)Oc1ccc(CO)cc1[C@H](CCN(C(C)C)C(C)C)c1ccccc1.O=C(O)/C=C/C(=O)O [Fesoterodine Fumarate] has what recorded Related substance iii) Oxidized (RRT 1.37)?
# output 0.06

* * *

# experimental details: Stability study for Fesoterodine Fumarate (description, water by KF, related substances by HPLC on storage)
# Assay type: physicochemical
# condition description: 2 Months 2 to 8° C.; PSD: D(90) = 270 microns
readout name: Related substance i) Diol (%)
// return numeric value only (unit: %, not printed)

# input Item CC(C)C(=O)Oc1ccc(CO)cc1[C@H](CCN(C(C)C)C(C)C)c1ccccc1.O=C(O)/C=C/C(=O)O [Fesoterodine Fumarate] has what recorded Related substance i) Diol?
# output 0.06
